experimentalProtocol: qHTS Assay for Rab9 Promoter Activators; further: nearly all actives have a fitted effect of over 60% in size
measurementContext: Huh7 Rab9 promoter-luciferase reporter, luminescence, 24 h; series mostly up to 9.22 µM
Out of some 320,000 compounds screened, about 9,100 (2.8%) were called active. Another 3% or so got no clear call; they are omitted. The call rests on the fitted dose curve; in most records, active means well fitted activation curve with a large enough effect; inconclusive means small, poorly fitted or top-dose-only effect; inactive means no such curve, though single readings can be large or run the other way. The sample holds actives, similar compounds and a random draw of the others, so the mix is not that of the screen.
Form entry, call: pick from active, inactive

Solved entries (count: 8):
Qu. Identify the outcome logged in this assay for the compound shown: O=C(COC(=O)CCCSc1nc2ccccc2[nH]1)Nc1ccc(Oc2ccccc2)cc1
Ans. inactive

Qu. Identify the outcome logged in this assay for the compound shown: C=CCN(CC=C)C(=O)CN1C(=O)c2ccccc2C1=O
Ans. inactive

Qu. Identify the outcome logged in this assay for the compound shown: O=C(c1ccc(Cl)nc1)N1CCN(S(=O)(=O)c2ccc3c(c2)OCCO3)CC1
Ans. inactive

Qu. Identify the outcome logged in this assay for the compound shown: O=C(Nc1nnc(-c2ccc(F)cc2)s1)c1c(F)cccc1Cl
Ans. inactive

Qu. Identify the outcome logged in this assay for the compound shown: O=C(CSc1nc2ccccc2[nH]1)c1cccs1
Ans. active

Qu. Identify the outcome logged in this assay for the compound shown: C=CCn1c(C)cc(C(=O)CN2C(=O)c3ccccc3C2=O)c1C
Ans. active

Qu. Identify the outcome logged in this assay for the compound shown: C/C(=N\NC(=O)c1nc(C)cc(C)n1)c1ccccc1
Ans. active

Qu. Identify the outcome logged in this assay for the compound shown: Cc1cc(C(=O)COC(=O)CCCN2C(=O)c3ccccc3C2=O)c(C)n1C
Ans. inactive

---
Qu. Identify the outcome logged in this assay for the compound shown: CN(Cc1ccccc1)C(=O)CSc1nc2ccccc2[nH]1
Ans. inactive

Qu. Identify the outcome logged in this assay for the compound shown: O=C(CSc1nc2ccccc2[nH]1)Nc1nc(-c2ccccc2)c(-c2ccccc2)o1
Ans. inactive

Qu. Identify the outcome logged in this assay for the compound shown: COc1ccc(/C(C)=N/NC(=O)c2ccc3nc[nH]c3c2)cc1
Ans. inactive
